Origin of measurements: patent US10406146B2

Target: HDAC1 enzyme (Homo sapiens)
Construct: transducing full length HDAC1 and HDAC6 genes into Sf-9 insect cells; GST; purchased SignalChem; host or cells: Sf-9 insect cells
Sequence (Q13547 whole entry): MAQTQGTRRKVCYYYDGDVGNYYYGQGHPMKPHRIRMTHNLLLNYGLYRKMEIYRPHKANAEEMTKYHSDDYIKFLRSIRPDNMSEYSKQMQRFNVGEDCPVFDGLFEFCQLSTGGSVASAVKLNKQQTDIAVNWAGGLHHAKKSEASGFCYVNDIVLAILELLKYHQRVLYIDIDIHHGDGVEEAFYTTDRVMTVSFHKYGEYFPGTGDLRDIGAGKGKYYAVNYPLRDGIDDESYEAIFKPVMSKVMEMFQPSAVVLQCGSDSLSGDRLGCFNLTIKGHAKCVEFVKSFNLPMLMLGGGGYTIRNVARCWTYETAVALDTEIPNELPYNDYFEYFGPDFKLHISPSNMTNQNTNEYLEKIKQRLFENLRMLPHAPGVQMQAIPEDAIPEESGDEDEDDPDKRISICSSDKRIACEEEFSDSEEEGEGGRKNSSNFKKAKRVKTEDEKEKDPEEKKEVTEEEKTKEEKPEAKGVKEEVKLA
Assay: HDAC1 enzyme inhibitory assay (HDAC-Glo I/II Assay kit)
Format: biochemical
Conditions: wells without enzyme = 100% inhibition, read-out: HDAC1 inhibitory rate (%) (1 μM)

- Molecule: "CC(=O)NCC1CCCCN1C(=O)Nc1ccc(-c2noc(C(F)(F)F)n2)cc1 (stereo not shown)"
  Study system: "HDAC1 enzyme (Homo sapiens)"
  inhibition at 1 µM (%): 41
- Molecule: "NC(=O)c1ccc(C(=O)NCC2CCCCN2C(=O)Nc2ccc(-c3noc(C(F)(F)F)n3)cc2)cc1 (stereo not shown)"
  Study system: "HDAC1 enzyme (Homo sapiens)"
  inhibition at 1 µM (%): 6
- Molecule: "O=C(NCC1CCCCN1C(=O)Nc1ccc(-c2noc(C(F)(F)F)n2)cc1)c1ccc(-c2ccccc2)cc1 (stereo not shown)"
  Study system: "HDAC1 enzyme (Homo sapiens)"
  inhibition at 1 µM (%): -12
- Molecule: "O=C(NCC1CCCCN1C(=O)Nc1ccc(-c2noc(C(F)(F)F)n2)cc1)c1cc(Cl)cc(Cl)c1 (stereo not shown)"
  Study system: "HDAC1 enzyme (Homo sapiens)"
  inhibition at 1 µM (%): -5
- Molecule: "Cn1nccc1C(=O)NCC1CCCCN1C(=O)Nc1ccc(-c2noc(C(F)(F)F)n2)cc1 (stereo not shown)"
  Study system: "HDAC1 enzyme (Homo sapiens)"
  inhibition at 1 µM (%): 59
- Molecule: "O=C(NCC1CCCCN1C(=O)Nc1ccc(-c2noc(C(F)(F)F)n2)cc1)c1ccc(Cl)cc1 (stereo not shown)"
  Study system: "HDAC1 enzyme (Homo sapiens)"
  inhibition at 1 µM (%): 4
- Molecule: "O=C(NCC1CCCCN1C(=O)Nc1ccc(-c2noc(C(F)(F)F)n2)cc1)c1ccc2nccn2c1 (stereo not shown)"
  Study system: "HDAC1 enzyme (Homo sapiens)"
  inhibition at 1 µM (%): 20
- Molecule: "COc1cccc(C(=O)NCC2CCCCN2C(=O)Nc2ccc(-c3noc(C(F)(F)F)n3)cc2)c1 (stereo not shown)"
  Study system: "HDAC1 enzyme (Homo sapiens)"
  inhibition at 1 µM (%): 24
- Molecule: "Cn1nccc1C(=O)NC[C@@H]1COCCN1C(=O)Nc1ccc(-c2noc(C(F)(F)F)n2)cc1"
  Study system: "HDAC1 enzyme (Homo sapiens)"
  inhibition at 1 µM (%): 70
- Molecule: "O=C(NCC1CCCCN1C(=O)Nc1ccc(-c2noc(C(F)(F)F)n2)cc1)c1ccccc1Cl (stereo not shown)"
  Study system: "HDAC1 enzyme (Homo sapiens)"
  inhibition at 1 µM (%): -3
- Molecule: "N#Cc1ccccc1C(=O)NCC1CCCCN1C(=O)Nc1ccc(-c2noc(C(F)(F)F)n2)cc1 (stereo not shown)"
  Study system: "HDAC1 enzyme (Homo sapiens)"
  inhibition at 1 µM (%): 15
- Molecule: "O=C(NCC1COCCN1C(=O)Nc1ccc(-c2noc(C(F)(F)F)n2)cc1)c1ccccc1 (stereo not shown)"
  Study system: "HDAC1 enzyme (Homo sapiens)"
  inhibition at 1 µM (%): 62
- Molecule: "O=C(NCC1CCCCN1C(=O)Nc1ccc(-c2noc(C(F)(F)F)n2)cc1)c1cccc(O)c1 (stereo not shown)"
  Study system: "HDAC1 enzyme (Homo sapiens)"
  inhibition at 1 µM (%): 42
- Molecule: "O=C(NCC1CCCCN1C(=O)Nc1ccc(-c2noc(C(F)(F)F)n2)cc1)c1ccc(Cl)c(Cl)c1 (stereo not shown)"
  Study system: "HDAC1 enzyme (Homo sapiens)"
  inhibition at 1 µM (%): -10
- Molecule: "O=C(NCC1COCCN1C(=O)Nc1ccc(-c2noc(C(F)(F)F)n2)cn1)c1ccccc1 (stereo not shown)"
  Study system: "HDAC1 enzyme (Homo sapiens)"
  inhibition at 1 µM (%): 85
- Molecule: "Cn1nc(C(=O)NCC2CCCCN2C(=O)Nc2ccc(-c3noc(C(F)(F)F)n3)cc2)cc1C(F)(F)F (stereo not shown)"
  Study system: "HDAC1 enzyme (Homo sapiens)"
  inhibition at 1 µM (%): 10
